Target: T1, H3K14Ac
T1 construct: also called H3K14Ac peptide
T1 peptide: {Biotin-Ahx}-TARKSTGGK(Ac)APRKQLAT
Test: phage ELISA, specificity heatmap
No end group written: not given here. *: point of attachment. Biotin = O=C1N[C@H]2[C@H](CS[C@H]2CCCCC(=O)*)N1; Ahx = NCCCCCC(=O)O
REPORTED_METRIC: binding result

BINDER: phage-displayed Cbx7.V2 (designed binder) SAICDNVYPVESIRKKRVRKGKVEYLVKWKGWPLEYSTWEPEEHILDPRLVMAYEEKEERDRASGYRKRGPK
REPORTED_METRIC: binding result
REPORTED_RESULT: no binding

BINDER: phage-displayed Cbx7.V4 (designed binder) SAICDNVFAVESIRKKRVRKGKVEYLVKWEGWPQEYSTWEPEEHILDPRLVMAYEEKEERDRASGYRKRGPK
REPORTED_METRIC: binding result
REPORTED_RESULT: no binding

BINDER: phage-displayed Cbx7.V1 (designed binder) SAIGDDIFAVESIRKKRVRKGKVEYLVKWEGWPLEYSTWEPEEHILDPRLVMAYEEKEERDRASGYRKRGPK
REPORTED_METRIC: binding result
REPORTED_RESULT: no binding

This collection of values is drawn from patent US20260266833A1.
